target: NR1/NR2D (Homo sapiens, UniProt O15399+Q05586); assay: Two electrode voltage clamp, Xenopus laevis oocytes expressing NR1/NR2D; conditions: read-out: 2D percent effect at the maximum tested concentration, at 100 μM
Sequence (O15399 28-1336, species assumed, other chains not shown): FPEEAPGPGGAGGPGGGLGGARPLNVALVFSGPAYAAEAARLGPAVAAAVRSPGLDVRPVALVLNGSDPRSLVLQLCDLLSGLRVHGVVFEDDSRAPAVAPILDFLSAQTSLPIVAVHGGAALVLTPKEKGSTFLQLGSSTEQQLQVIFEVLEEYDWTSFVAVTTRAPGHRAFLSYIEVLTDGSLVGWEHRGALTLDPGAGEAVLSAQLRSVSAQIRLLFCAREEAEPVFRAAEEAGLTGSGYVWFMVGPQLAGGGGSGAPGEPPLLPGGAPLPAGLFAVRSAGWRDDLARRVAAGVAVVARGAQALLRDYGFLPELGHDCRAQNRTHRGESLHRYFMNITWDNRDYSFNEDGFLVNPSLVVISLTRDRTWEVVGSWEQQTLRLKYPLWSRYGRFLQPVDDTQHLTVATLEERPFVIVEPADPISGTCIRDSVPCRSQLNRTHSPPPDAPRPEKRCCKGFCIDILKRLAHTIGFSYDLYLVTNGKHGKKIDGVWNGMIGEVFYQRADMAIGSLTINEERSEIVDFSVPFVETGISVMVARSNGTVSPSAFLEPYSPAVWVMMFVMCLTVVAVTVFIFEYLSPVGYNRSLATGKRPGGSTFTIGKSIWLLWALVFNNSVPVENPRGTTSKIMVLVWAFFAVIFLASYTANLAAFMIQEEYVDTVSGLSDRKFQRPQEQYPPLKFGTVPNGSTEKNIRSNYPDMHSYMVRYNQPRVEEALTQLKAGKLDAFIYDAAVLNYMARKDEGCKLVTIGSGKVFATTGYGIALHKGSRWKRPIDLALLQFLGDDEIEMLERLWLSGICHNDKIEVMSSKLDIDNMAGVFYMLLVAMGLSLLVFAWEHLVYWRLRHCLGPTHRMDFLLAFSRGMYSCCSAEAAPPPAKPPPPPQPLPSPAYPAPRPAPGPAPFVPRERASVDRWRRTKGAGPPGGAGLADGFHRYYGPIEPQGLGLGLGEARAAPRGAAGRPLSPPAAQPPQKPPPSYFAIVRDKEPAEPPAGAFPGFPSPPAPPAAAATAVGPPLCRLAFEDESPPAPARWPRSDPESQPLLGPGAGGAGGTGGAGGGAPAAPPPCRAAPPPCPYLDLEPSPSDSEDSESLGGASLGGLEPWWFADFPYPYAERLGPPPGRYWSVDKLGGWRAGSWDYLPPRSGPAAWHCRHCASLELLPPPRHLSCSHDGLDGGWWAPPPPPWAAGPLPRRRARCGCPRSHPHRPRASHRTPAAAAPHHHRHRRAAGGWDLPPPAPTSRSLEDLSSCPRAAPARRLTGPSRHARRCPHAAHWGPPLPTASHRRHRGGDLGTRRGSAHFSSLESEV
Item-by-item account of activity at 100 µM
Kindly provide the numeric value in % only, without the unit symbol.

[
  {
    "molecule": "COc1ccc(OCC2c3cc(OC)c(OC)cc3CCN2C(=O)Nc2ccc(Cl)cc2)cc1 (stereo not drawn)",
    "activity at 100 µM / %": 66
  },
  {
    "molecule": "COc1ccc(OCC2c3cc(OC)c(OC)cc3CCN2C(=S)Nc2cccc(Br)c2)cc1 (stereo not drawn)",
    "activity at 100 µM / %": 87
  },
  {
    "molecule": "COc1cccc(OCC2c3cc(OC)c(OC)cc3CCN2C(=O)c2ccccc2)c1 (stereo not drawn)",
    "activity at 100 µM / %": 75
  }
]

The reported value for COc1ccc(OCC2c3cc(OC)c(OC)cc3CCN2C(=O)c2ccc(Br)cc2)cc1 (stereo not drawn) in terms of activity at 100 µM is 94

The reported value for CCN1CC(C(O)Nc2ccc(OC)cc2OC)c2cc(OC)c(OC)cc2C1=O (stereo not drawn) in terms of activity at 100 µM is 89

----------
Molecular target: NR1/NR2A (Homo sapiens, UniProt Q12879)
Construct: expressed in transfected cells; host or cells: Xenopus laevis oocytes
Sequence (Q12879 23-1464, species assumed, other chains not shown): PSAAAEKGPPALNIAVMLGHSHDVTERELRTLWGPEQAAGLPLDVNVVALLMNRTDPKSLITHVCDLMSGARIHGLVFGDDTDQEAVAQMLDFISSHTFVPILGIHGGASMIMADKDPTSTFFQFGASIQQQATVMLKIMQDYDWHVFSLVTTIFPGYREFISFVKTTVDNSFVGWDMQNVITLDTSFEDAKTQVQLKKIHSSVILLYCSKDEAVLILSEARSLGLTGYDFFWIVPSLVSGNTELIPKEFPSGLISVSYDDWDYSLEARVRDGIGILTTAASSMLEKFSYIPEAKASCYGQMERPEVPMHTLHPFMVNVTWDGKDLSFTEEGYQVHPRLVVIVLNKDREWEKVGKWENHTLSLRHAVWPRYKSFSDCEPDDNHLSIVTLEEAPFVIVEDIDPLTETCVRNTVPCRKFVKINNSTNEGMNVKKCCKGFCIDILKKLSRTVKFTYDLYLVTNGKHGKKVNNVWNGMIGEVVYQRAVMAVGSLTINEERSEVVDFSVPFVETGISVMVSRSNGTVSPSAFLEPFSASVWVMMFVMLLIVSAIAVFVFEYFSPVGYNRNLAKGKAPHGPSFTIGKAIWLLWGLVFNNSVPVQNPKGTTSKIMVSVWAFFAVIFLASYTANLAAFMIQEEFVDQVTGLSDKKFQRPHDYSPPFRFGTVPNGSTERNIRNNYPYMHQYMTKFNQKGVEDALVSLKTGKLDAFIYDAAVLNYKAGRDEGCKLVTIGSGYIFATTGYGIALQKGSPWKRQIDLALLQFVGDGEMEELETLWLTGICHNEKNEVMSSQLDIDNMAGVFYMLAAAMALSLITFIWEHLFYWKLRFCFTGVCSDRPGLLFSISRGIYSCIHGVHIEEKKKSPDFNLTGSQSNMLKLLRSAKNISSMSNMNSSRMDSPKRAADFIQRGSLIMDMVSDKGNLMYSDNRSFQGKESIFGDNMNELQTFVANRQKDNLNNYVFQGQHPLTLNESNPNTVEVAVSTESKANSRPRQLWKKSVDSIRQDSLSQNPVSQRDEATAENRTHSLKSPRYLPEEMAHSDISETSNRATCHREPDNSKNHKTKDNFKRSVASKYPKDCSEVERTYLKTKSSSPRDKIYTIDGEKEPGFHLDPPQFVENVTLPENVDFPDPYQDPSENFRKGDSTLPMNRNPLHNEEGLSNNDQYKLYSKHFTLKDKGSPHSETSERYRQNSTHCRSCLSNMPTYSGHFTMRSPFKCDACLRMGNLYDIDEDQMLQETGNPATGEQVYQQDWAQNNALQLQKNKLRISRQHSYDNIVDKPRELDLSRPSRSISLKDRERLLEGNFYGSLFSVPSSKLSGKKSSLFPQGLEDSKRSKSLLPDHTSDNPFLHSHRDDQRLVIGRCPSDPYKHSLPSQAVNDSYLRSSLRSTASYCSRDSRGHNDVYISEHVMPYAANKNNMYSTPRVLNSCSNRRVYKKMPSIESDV
Test: Two electrode voltage clamp, Xenopus laevis oocytes expressing NR1/NR2A
Type: cell-based
Conditions: at 100 μM; read-out: 2A percent effect at the maximum tested concentration
Protocol: In the table above, potency is expressed as fitted EC50 value to average composite concentration-effect data constructed from current responses recorded under two electrode voltage clamp from Xenopus laevis oocytes expressing either NR1/NR2A, B, C, or D, GluR1, or GluR6. No effect means less than 20% change in response amplitude at 30 μM of drug.
Item-by-item account of activity at 100 µM
Kindly provide the numeric value in % only, without the unit symbol.

Past entries and their recorded results:
[
  {
    "compound": "CCN1CC(C(O)Nc2ccc(OC)cc2OC)c2cc(OC)c(OC)cc2C1=O (stereo not drawn)",
    "testTarget": "NR1/NR2A (Homo sapiens, UniProt Q12879)",
    "activity at 100 µM [%]": 99
  },
  {
    "compound": "CC(C)(C)c1ccc(C(=O)Nc2sc3c(c2C(=O)O)CCC3)cc1",
    "testTarget": "NR1/NR2A (Homo sapiens, UniProt Q12879)",
    "activity at 100 µM [%]": 100
  },
  {
    "compound": "Cc1ccc(-c2csc(NC(=O)c3ccc(C(C)(C)C)cc3)c2C(=O)O)cc1",
    "testTarget": "NR1/NR2A (Homo sapiens, UniProt Q12879)",
    "activity at 100 µM [%]": 121
  }
]

The reported value for COC(=O)c1ccc(OCC2c3cc(OC)c(OC)cc3CCN2C(=O)c2cccc(Cl)c2)cc1 (stereo not drawn) in terms of activity at 100 µM is 91

The reported value for COc1ccc(NC(O)C2CN(C)C(=O)c3cc(OC)c(OC)cc32)c(OC)c1 (stereo not drawn) in terms of activity at 100 µM is 114

The reported value for COc1ccc(OCC2c3cc(OC)c(OC)cc3CCN2C(=O)c2ccno2)cc1 (stereo not drawn) in terms of activity at 100 µM is 98

The reported value for COc1ccc(OCC2c3cc(OC)c(OC)cc3CCN2C(=O)c2ccccc2)cc1 (stereo not drawn) in terms of activity at 100 µM is 81

The reported value for COc1ccc(OCC2c3cc(OC)c(OC)cc3CCN2C(=O)CN2CCOCC2)cc1 (stereo not drawn) in terms of activity at 100 µM is 100

The reported value for COc1ccc(OCC2c3cc(OC)c(OC)cc3CCN2C(=O)c2cccc(C(F)(F)F)c2)cc1 (stereo not drawn) in terms of activity at 100 µM is 88

The reported value for COc1cccc(OCC2c3cc(OC)c(OC)cc3CCN2C(=O)c2cccc(Cl)c2)c1 (stereo not drawn) in terms of activity at 100 µM is 93

The reported value for COc1ccc(OCC2c3cc(OC)c(OC)cc3CCN2C(=O)c2cccc(Br)c2)cc1 (stereo not drawn) in terms of activity at 100 µM is 119

The reported value for COc1cc2c(cc1OC)C(COc1ccccc1)N(C(=O)c1ccccc1)CC2 (stereo not drawn) in terms of activity at 100 µM is 100

The reported value for O=C(O)C1=C(NC(=O)c2ccc(I)cc2)SC2CCCC12 (stereo not drawn) in terms of activity at 100 µM is 93

The reported value for Cc1ccc(C(=O)Nc2sc(C)cc2C(=O)O)cc1 in terms of activity at 100 µM is 92

The reported value for CC(C)(C)c1ccc(C(=O)Nc2sc3c(c2C(=O)O)CCCC3)cc1 in terms of activity at 100 µM is 87

The reported value for COc1ccc(-c2csc(NC(=O)c3ccc(C(C)(C)C)cc3)c2C(=O)O)cc1 in terms of activity at 100 µM is 123

The reported value for CC(C)(C)c1ccc(NC(=O)C2CC=CCC2C(=O)O)cc1 (stereo not drawn) in terms of activity at 100 µM is 92

The reported value for COc1ccc(OCC2c3cc(OC)c(OC)cc3CCN2C(=O)c2ccc(Cl)cc2)cc1 (stereo not drawn) in terms of activity at 100 µM is 105

The reported value for COc1ccc(OCC2c3cc4c(cc3CCN2C(=O)c2cccc(Cl)c2)OCO4)cc1 (stereo not drawn) in terms of activity at 100 µM is 96

The reported value for COc1ccc(OCC2c3cc(OC)c(OC)cc3CCN2C(=O)c2cccs2)cc1 (stereo not drawn) in terms of activity at 100 µM is 78

The reported value for CCOC(=O)c1cc(C)sc1NC(=O)c1ccc(C(C)(C)C)cc1 in terms of activity at 100 µM is 80
